target: RP1 peptide/HLA-A*02:01 complex (recombinant) (human, UniProt P16213 21-119 (Pongo pygmaeus entry)); assay: SPR
Measurement Label: binding result

INSERT INTO assay_data (binder, val) VALUES
  ('AS170036 VL1VH1-VLH98P (scFv) scFv: QSALTQPRSVSGSPGQSVTISCAGTSSDVGSENYVSWYQQHPGKAPKLMIYQVNKRASGVPDRFSGSKSGNTASLTISGLQAEDEADYYCASYRSSDPNIVFGGGTKLTVLGGGGSGGGGSGGGGSEVQLVESGGGLVQPGGSLRLSCAASGFTFSSYAMSWVRQAPGKGLEWVSTINSGTGSPYYADSVKGRFTISRDNSKNTLYLQMNSLRAEDTAVYYCAKNFFDGSWFLGPPAMDYWGQGTLVTVSSHHHHHH', 'no binding'),
  ('AS170036 VL1VH1-VHS57Q (scFv) scFv: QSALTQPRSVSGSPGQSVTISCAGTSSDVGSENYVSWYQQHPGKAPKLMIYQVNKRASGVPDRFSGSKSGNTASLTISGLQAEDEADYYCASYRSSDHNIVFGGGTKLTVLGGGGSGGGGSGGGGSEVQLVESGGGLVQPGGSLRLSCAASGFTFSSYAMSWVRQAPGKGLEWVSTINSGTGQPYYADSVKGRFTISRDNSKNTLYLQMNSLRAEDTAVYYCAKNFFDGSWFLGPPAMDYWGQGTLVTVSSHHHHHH', 'no binding'),
  ('AS170036 VL1VH1-VLH98V (scFv) scFv: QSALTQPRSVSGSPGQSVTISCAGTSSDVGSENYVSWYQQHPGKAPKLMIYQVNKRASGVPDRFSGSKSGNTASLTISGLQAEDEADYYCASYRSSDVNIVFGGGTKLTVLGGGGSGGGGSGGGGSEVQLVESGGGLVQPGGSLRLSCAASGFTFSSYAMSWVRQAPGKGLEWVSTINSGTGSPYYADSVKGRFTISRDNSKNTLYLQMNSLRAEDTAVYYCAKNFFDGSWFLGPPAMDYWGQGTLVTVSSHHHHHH', 'no binding');
